# Test system: ulcers induced by cold stress
# EXPERIMENTAL_DETAILS: Antiulcer activity against ulcers induced by cold stress
# Format: in vivo, rat (Wistar)
# MEASUREMENT_CONDITIONS: rat, oral, 12 h before cold stress; * P < 0.05 versus WAS 4303 (so in the source); read-out: ED50 by oral administration at 12 h before commencement of cold stress
MEASUREMENT_TYPE: ED50
Report the figure along with its unit, number first.

Ask: // ED50 lookup, key: C[C@@H]([C@H](OC(=O)c1cccs1)c1ccccc1)N(C)CC=C1c2ccccc2CCc2ccccc21 (relative stereo)
Result: 0.8 mg/kg

Ask: Same for C[C@@H]([C@H](OC(=O)c1cccnc1)c1ccccc1)N(C)CC=C1c2ccccc2CCc2ccccc21 (relative stereo)
Result: 0.9 mg/kg

Ask: Same for CCCCCCCCCC(=O)O[C@H](c1ccccc1)[C@H](C)N(C)CC=C1c2ccccc2CCc2ccccc21 (relative stereo)
Result: 0.9 mg/kg

Ask: Same for C[C@@H]([C@H](O)c1ccccc1)N(C)CC=C1c2ccccc2CCc2ccccc21 (relative stereo) [WAS 4304, reference compound]
Result: 1.6 mg/kg

Ask: Same for C[C@@H]([C@H](OC(=O)C(N)Cc1cnc[nH]1)c1ccccc1)N(C)CC=C1c2ccccc2CCc2ccccc21 (some centres unmarked)
Result: 1 mg/kg

* * *

Provide the reported ED50 of each item.
# System: ulcers induced by ligature of the pylorus
# EXPERIMENTAL_DETAILS: Antiulcer activity against ulcers induced by ligature of the pylorus (Shay test)
# Format: in vivo, rat (Sprague Dawley)
# MEASUREMENT_CONDITIONS: rat, oral, 12 h before pylorus ligature; * P < 0.05 versus WAS 4303 (so in the source); read-out: ED50 by oral administration at 12 h before pylorus ligature
Report the figure along with its unit, number first.

Ask: // ED50 lookup, key: C[C@@H]([C@H](OC(=O)C(N)Cc1cnc[nH]1)c1ccccc1)N(C)CC=C1c2ccccc2CCc2ccccc21 (some centres unmarked)
Result: 0.5 mg/kg

Ask: Same for C[C@@H]([C@H](OC(=O)c1cccnc1)c1ccccc1)N(C)CC=C1c2ccccc2CCc2ccccc21 (relative stereo)
Result: 0.4 mg/kg

Ask: Same for C[C@@H]([C@H](OC(=O)c1cccs1)c1ccccc1)N(C)CC=C1c2ccccc2CCc2ccccc21 (relative stereo)
Result: 0.4 mg/kg

Ask: Same for C[C@@H]([C@H](O)c1ccccc1)N(C)CC=C1c2ccccc2CCc2ccccc21 (relative stereo) [WAS 4304, reference compound]
Result: 1.1 mg/kg

Ask: Same for CCCCCCCCCC(=O)O[C@H](c1ccccc1)[C@H](C)N(C)CC=C1c2ccccc2CCc2ccccc21 (relative stereo)
Result: 0.5 mg/kg

* * *

Provide the reported LD50 at 192 h of each item.
# EXPERIMENTAL_DETAILS: Acute toxicity in rats, endoperitoneal administration (LD50, Lichtfield and Wilcoxon)
# Parameters: species or system rat (Wistar)
# MEASUREMENT_CONDITIONS: in vivo, ip, rat, mortality within eight days
Answer format: numeric, mg/kg implied, no suffix.

Ask: // LD50 at 192 h lookup, key: C[C@@H]([C@H](OC(=O)C(N)Cc1cnc[nH]1)c1ccccc1)N(C)CC=C1c2ccccc2CCc2ccccc21 (some centres unmarked)
Result: 590

Ask: Same for C[C@@H]([C@H](OC(=O)c1cccs1)c1ccccc1)N(C)CC=C1c2ccccc2CCc2ccccc21 (relative stereo)
Result: 681

Ask: Same for CCCCCCCCCC(=O)O[C@H](c1ccccc1)[C@H](C)N(C)CC=C1c2ccccc2CCc2ccccc21 (relative stereo)
Result: 510

Ask: Same for C[C@@H]([C@H](OC(=O)c1cccnc1)c1ccccc1)N(C)CC=C1c2ccccc2CCc2ccccc21 (relative stereo)
Result: 618

Ask: Same for C[C@@H]([C@H](O)c1ccccc1)N(C)CC=C1c2ccccc2CCc2ccccc21 (relative stereo) [WAS 4304, reference compound]
Result: 87
